Test system: MDA-MB (breast cancer)
Assay: ATP level assay (CellTiter-Glo), percent of control
Type: cell-based
Conditions: compound 100 uM + rotenone (approximately 1.25 μM), two hour incubation
Catalogue of compounds with associated POC (percent of control) MDA-MB
OBSERVATION_TYPE: POC (percent of control) MDA-MB

{"columns": ["COMPOUND", "EXPERIMENTAL_VALUE"],
 "data": [
  ["Cn1cc(CNS(=O)(=O)c2ccc(Cl)cc2)cn1", "97.9% of control"],
  ["COc1ncccc1CNS(=O)(=O)c1ccc(C)cc1", "105.7% of control"],
  ["O=S(=O)(NCc1ccco1)c1ccc(Cl)cc1", "98.5% of control"],
  ["Cc1ccc(S(=O)(=O)NCc2coc(C)n2)cc1", "121.5% of control"],
  ["Cc1cccc2c(CNS(=O)(=O)c3ccccc3)c[nH]c12", "67.3% of control"],
  ["COc1ncccc1CNS(=O)(=O)c1ccccc1", "103.8% of control"],
  ["COc1ccc(S(=O)(=O)NCc2c[nH]c3ccccc23)cc1", "83% of control"],
  ["Cc1ccc(S(=O)(=O)NCc2cnccn2)cc1", "92.7% of control"],
  ["O=[N+]([O-])c1cccc(S(=O)(=O)NCc2c[nH]c3ccccc23)c1", "88.8% of control"],
  ["Cc1ccc(S(=O)(=O)NCc2c[nH]c3cccc(Br)c23)cc1", "24.6% of control"]
]}

* * *

Catalogue of molecules with associated POC (percent of control) T47D
Test system: T47D (breast cancer)
Test: ATP level assay (CellTiter-Glo), percent of control
Assay type: cell-based
Settings: compound 100 uM + 2DG (about 10-20 mM), two hour incubation
OBSERVATION_TYPE: POC (percent of control) T47D

{"columns": ["MOLECULE", "OBSERVATION_TYPE", "EXPERIMENTAL_VALUE"],
 "data": [
  ["Cc1ccc(S(=O)(=O)NCc2ccc3ncccc3c2)cc1 [Compound 22]", "POC (percent of control) T47D", "62.5% of control"],
  ["COc1ccc(S(=O)(=O)NCc2c[nH]c3ccccc23)cc1 [Compound 23]", "POC (percent of control) T47D", "46.6% of control"],
  ["CC(=O)n1cc(CNS(=O)(=O)c2ccc(Cl)cc2)c2ccccc21 [Compound 4]", "POC (percent of control) T47D", "36.3% of control"],
  ["O=[N+]([O-])c1cccc(S(=O)(=O)NCc2c[nH]c3ccccc23)c1 [Compound 25]", "POC (percent of control) T47D", "88.9% of control"],
  ["O=S(=O)(NCc1c[nH]c2cccc(Br)c12)c1ccc(Cl)cc1 [Compound 27]", "POC (percent of control) T47D", "103.1% of control"],
  ["O=S(=O)(NCc1c[nH]c2ccccc12)c1ccc(C(F)(F)F)cc1 [Compound 24]", "POC (percent of control) T47D", "49.7% of control"],
  ["O=S(=O)(NCc1cncnc1)c1ccccc1 [Compound 15]", "POC (percent of control) T47D", "82.5% of control"],
  ["COc1ncccc1CNS(=O)(=O)c1ccccc1 [Compound 13]", "POC (percent of control) T47D", "88.8% of control"],
  ["Cc1ccc(S(=O)(=O)NCc2c[nH]c3cccc(Br)c23)cc1 [Compound 5]", "POC (percent of control) T47D", "13.8% of control"]
]}

* * *

Test system: H293 (kidney cancer)
Assay: ATP level assay (CellTiter-Glo), percent of control
Format: cell-based
Conditions: 2 h; compound alone, 100 uM, two hour incubation, control DMSO; read-out: POC (percent of control) H293

{"columns": ["COMPOUND", "activity at 100 µM"],
 "data": [
  ["O=S(=O)(NCc1c[nH]c2ccccc12)c1ccc(C(F)(F)F)cc1 [Compound 24]", "62.6%"],
  ["Cc1ccc(S(=O)(=O)NCc2ccc3c(cnn3C)c2)cc1 [Compound 9]", "83.3%"],
  ["Cn1ncc2cc(CNS(=O)(=O)c3ccc(Cl)cc3)ccc21 [Compound 10]", "106%"],
  ["O=S(=O)(NCc1cncnc1)c1ccc(Cl)cc1 [Compound 14]", "84.9%"],
  ["O=S(=O)(NCc1c[nH]c2cccc(Br)c12)c1ccc(Cl)cc1 [Compound 27]", "67%"],
  ["Cc1cccc2[nH]cc(CNS(=O)(=O)c3ccc(Cl)cc3)c12 [Compound 30]", "14%"],
  ["Cc1cccc2c(CNS(=O)(=O)c3ccccc3)c[nH]c12 [Compound 6]", "62.6%"],
  ["Cc1ccc(S(=O)(=O)NCc2c[nH]c3cccc(Br)c23)cc1 [Compound 5]", "49.7%"],
  ["O=S(=O)(NCc1ccco1)c1ccc(Cl)cc1 [Compound 20]", "104%"]
]}

* * *

Test system: H293 (kidney cancer)
Assay: ATP level assay (CellTiter-Glo), percent of control
Format: cell-based
Conditions: compound 100 uM + rotenone (approximately 1.25 μM), two hour incubation

{"columns": ["COMPOUND", "POC (percent of control) H293"],
 "data": [
  ["Cc1ccc(S(=O)(=O)NCc2cnccn2)cc1 [Compound 16]", "81.6% of control"],
  ["Cc1cccc2c(CNS(=O)(=O)c3ccccc3)c[nH]c12 [Compound 6]", "49.6% of control"],
  ["COc1ncccc1CNS(=O)(=O)c1ccc(C)cc1 [Compound 12]", "74.9% of control"],
  ["Cc1ccc(S(=O)(=O)NCc2cscn2)cc1 [Compound 17]", "74.9% of control"],
  ["Cc1cccc2[nH]cc(CNS(=O)(=O)c3ccc(Cl)cc3)c12 [Compound 30]", "9.5% of control"],
  ["COc1ncccc1CNS(=O)(=O)c1ccccc1 [Compound 13]", "81.1% of control"],
  ["O=[N+]([O-])c1cccc(S(=O)(=O)NCc2c[nH]c3ccccc23)c1 [Compound 25]", "68.8% of control"],
  ["Cc1cccc2c(CNS(=O)(=O)c3ccc(Cl)cc3)c[nH]c12 [Compound 28]", "43.3% of control"],
  ["Cc1ccc(S(=O)(=O)NCc2ccc3ncccc3c2)cc1 [Compound 22]", "90.9% of control"],
  ["Cc1ccc(S(=O)(=O)NCc2c[nH]c3ccccc23)cc1 [Compound 1]", "69% of control"]
]}

* * *

Tested on: SkBr3 (breast cancer)
Assay: ATP level assay (CellTiter-Glo), percent of control
Assay type: cell-based
Details: compound 100 uM + 2DG (about 10-20 mM), two hour incubation
Catalogue of molecules with associated POC (percent of control) SkBr3

{"columns": ["COMPOUND", "ASSAYED_SYSTEM", "POC (percent of control) SkBr3"],
 "data": [
  ["O=S(=O)(NCc1c[nH]c2ccccc12)c1ccccc1", "SkBr3 (breast cancer)", "79.4% of control"],
  ["Cc1ccc(S(=O)(=O)NCc2cnccn2)cc1", "SkBr3 (breast cancer)", "81.4% of control"],
  ["COc1ncccc1CNS(=O)(=O)c1ccc(C)cc1", "SkBr3 (breast cancer)", "73.5% of control"],
  ["COc1ccc(S(=O)(=O)NCc2c[nH]c3ccccc23)cc1", "SkBr3 (breast cancer)", "75.5% of control"],
  ["CC(=O)n1cc(CNS(=O)(=O)c2ccc(Cl)cc2)c2ccccc21", "SkBr3 (breast cancer)", "87.5% of control"],
  ["Cc1ccc(S(=O)(=O)NCc2coc(C)n2)cc1", "SkBr3 (breast cancer)", "108.5% of control"],
  ["Cc1cccc2c(CNS(=O)(=O)c3ccc(Cl)cc3)c[nH]c12", "SkBr3 (breast cancer)", "79.6% of control"],
  ["Cn1cc(CNS(=O)(=O)c2ccc(Cl)cc2)cn1", "SkBr3 (breast cancer)", "99.7% of control"],
  ["Cc1ccc(S(=O)(=O)NCc2nn(C)c3ccccc23)cc1", "SkBr3 (breast cancer)", "97.1% of control"],
  ["O=S(=O)(NCc1cncnc1)c1ccccc1", "SkBr3 (breast cancer)", "123.3% of control"],
  ["Cc1ccc(S(=O)(=O)NCc2cscn2)cc1", "SkBr3 (breast cancer)", "88.8% of control"],
  ["COc1ncccc1CNS(=O)(=O)c1ccccc1", "SkBr3 (breast cancer)", "87.2% of control"],
  ["Cn1ncc2cc(CNS(=O)(=O)c3ccc(Cl)cc3)ccc21", "SkBr3 (breast cancer)", "98% of control"],
  ["Cc1cccc2[nH]cc(CNS(=O)(=O)c3ccc(Cl)cc3)c12", "SkBr3 (breast cancer)", "41.3% of control"],
  ["Cc1ccc(S(=O)(=O)NCc2ccc3ncccc3c2)cc1", "SkBr3 (breast cancer)", "83.5% of control"],
  ["O=[N+]([O-])c1cccc(S(=O)(=O)NCc2c[nH]c3ccccc23)c1", "SkBr3 (breast cancer)", "88.2% of control"],
  ["O=S(=O)(NCc1c[nH]c2ccccc12)c1ccc(Cl)cc1", "SkBr3 (breast cancer)", "38% of control"],
  ["Cc1cccc2[nH]cc(CNS(=O)(=O)c3ccccc3)c12", "SkBr3 (breast cancer)", "76.2% of control"],
  ["Cc1ccc(S(=O)(=O)NCc2c[nH]c3ccccc23)cc1", "SkBr3 (breast cancer)", "72.9% of control"],
  ["Cc1ccc(S(=O)(=O)NCc2ccc3c(cnn3C)c2)cc1", "SkBr3 (breast cancer)", "89.9% of control"],
  ["O=S(=O)(NCc1c[nH]c2ccccc12)c1ccc(C(F)(F)F)cc1", "SkBr3 (breast cancer)", "66.5% of control"],
  ["Cc1cccc2c(CNS(=O)(=O)c3ccccc3)c[nH]c12", "SkBr3 (breast cancer)", "55.9% of control"],
  ["Cc1ccc(S(=O)(=O)NCc2nccs2)cc1", "SkBr3 (breast cancer)", "105.9% of control"],
  ["O=S(=O)(NCc1c[nH]c2cccc(Br)c12)c1ccc(Cl)cc1", "SkBr3 (breast cancer)", "62.4% of control"],
  ["O=S(=O)(NCc1ccco1)c1ccc(Cl)cc1", "SkBr3 (breast cancer)", "96.7% of control"],
  ["Cc1ccc(S(=O)(=O)NCc2c[nH]c3cccc(Br)c23)cc1", "SkBr3 (breast cancer)", "37.1% of control"],
  ["CS(=O)(=O)NCc1c[nH]c2ccccc12", "SkBr3 (breast cancer)", "95.7% of control"],
  ["Cn1cc(CNS(=O)(=O)c2ccc(Cl)cc2)c2ccccc21", "SkBr3 (breast cancer)", "72.5% of control"],
  ["O=S(=O)(NCc1cscn1)c1ccc(Cl)cc1", "SkBr3 (breast cancer)", "107.2% of control"],
  ["O=S(=O)(NCc1cncnc1)c1ccc(Cl)cc1", "SkBr3 (breast cancer)", "96.9% of control"]
]}
